assay_system: furin, P09958;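 also: purified furin at 1:10 enzyme:substrate in 50 mM HEPES pH 7.5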
Sequence (P09958 whole entry): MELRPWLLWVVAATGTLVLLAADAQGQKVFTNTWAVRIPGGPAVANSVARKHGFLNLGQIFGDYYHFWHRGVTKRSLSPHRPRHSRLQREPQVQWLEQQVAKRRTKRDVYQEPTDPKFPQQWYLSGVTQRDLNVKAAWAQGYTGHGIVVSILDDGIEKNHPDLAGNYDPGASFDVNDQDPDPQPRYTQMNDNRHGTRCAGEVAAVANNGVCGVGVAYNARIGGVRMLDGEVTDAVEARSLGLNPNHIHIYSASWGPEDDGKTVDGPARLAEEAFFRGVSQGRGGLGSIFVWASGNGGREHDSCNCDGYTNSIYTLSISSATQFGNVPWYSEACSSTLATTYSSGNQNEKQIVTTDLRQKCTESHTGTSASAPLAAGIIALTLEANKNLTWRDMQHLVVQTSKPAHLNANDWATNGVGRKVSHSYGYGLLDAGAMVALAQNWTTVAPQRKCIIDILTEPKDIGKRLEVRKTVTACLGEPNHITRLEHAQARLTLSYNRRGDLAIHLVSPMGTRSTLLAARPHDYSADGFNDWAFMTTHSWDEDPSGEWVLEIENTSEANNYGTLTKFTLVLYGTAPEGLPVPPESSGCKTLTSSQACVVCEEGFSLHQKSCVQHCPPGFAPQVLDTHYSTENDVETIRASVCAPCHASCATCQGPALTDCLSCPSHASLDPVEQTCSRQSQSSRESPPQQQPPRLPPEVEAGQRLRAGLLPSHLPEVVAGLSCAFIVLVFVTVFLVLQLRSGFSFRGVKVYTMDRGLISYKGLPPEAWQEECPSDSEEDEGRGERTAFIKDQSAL
assay_summary: furin cleavage Z-score vs untreated control; higher = more cleavage, active = 3.5 or more, inactive = 1 or less, 8 variable residues between constant flanks
measurement_context: 15 min
This is one part of the list. The hit rate among all sequences tested is not known here.
The sequences listed here are annotated with their furin cleavage Z-score.
API doc: respond with a numeric literal and nothing else, no unit.

Answered examples (2):
CAFAERSGRGAGNASASA [FS-1322]	0.465
CAFAERQRRSAGNASASA [FS-1588]	11

**Query** Which furin cleavage Z-score is reported for this sequence? CASIYPGHITAGNASASA [HC314]
**Result** -1.12

**Query** Which furin cleavage Z-score is reported for this sequence? CAGHGRQERSAGNASASA [FS-530]
**Result** 3.84

**Query** Which furin cleavage Z-score is reported for this sequence? CAGRHCVRRSAGNASASA [FS-163]
**Result** 4.86

**Query** Which furin cleavage Z-score is reported for this sequence? CAFWEGVFTGAGNASASA [HC939]
**Result** 0.063

**Query** Which furin cleavage Z-score is reported for this sequence? CALLGCIITSAGNASASA [HC680]
**Result** -1.06
